# TARGET_OF_ASSAY: KOR (Homo sapiens, UniProt P41145)
# Construct: expressed in transfected cells; host or cells: CHO (hKOR-CHO)
# Sequence (P41145 whole entry): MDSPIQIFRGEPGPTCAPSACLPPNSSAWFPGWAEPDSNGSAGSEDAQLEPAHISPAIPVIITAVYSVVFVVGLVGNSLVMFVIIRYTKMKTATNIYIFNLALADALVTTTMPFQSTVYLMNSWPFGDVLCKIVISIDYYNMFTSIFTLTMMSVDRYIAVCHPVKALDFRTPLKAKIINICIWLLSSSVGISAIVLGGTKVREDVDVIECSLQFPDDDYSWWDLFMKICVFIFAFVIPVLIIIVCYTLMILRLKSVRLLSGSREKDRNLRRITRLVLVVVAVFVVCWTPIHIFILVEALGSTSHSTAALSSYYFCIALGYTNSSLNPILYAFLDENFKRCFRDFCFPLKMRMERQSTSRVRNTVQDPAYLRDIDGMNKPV
# EXPERIMENT: [35S]GTP-γ-S binding assay, hKOR-CHO cells
# Assay type: biochemical
# PROTOCOL_CONDITIONS: stimulation of [35S]GTP-γ-S binding; no stim = no stimulation; read-out: agonist activity KOR EC50
READOUT_LABEL: pEC50
Kindly note that pEC50 refers to -log10 of the concentration in mol/L and answer with the value alone.

q: Provide one value: measured pEC50 of O=C(CCc1ccccc1)O[C@@]12Cc3cc(-c4ccc(Cl)cc4)cnc3[C@@H]3Oc4c(O)ccc5c4[C@@]31CCN(CC1CC1)[C@@H]2C5 [Compound 18c]
a: 7.89

* * *

# TARGET_OF_ASSAY: MOR (Homo sapiens, UniProt P35372)
# Construct: expressed in transfected cells; host or cells: CHO (hMOR-CHO)
# Sequence (P35372 whole entry): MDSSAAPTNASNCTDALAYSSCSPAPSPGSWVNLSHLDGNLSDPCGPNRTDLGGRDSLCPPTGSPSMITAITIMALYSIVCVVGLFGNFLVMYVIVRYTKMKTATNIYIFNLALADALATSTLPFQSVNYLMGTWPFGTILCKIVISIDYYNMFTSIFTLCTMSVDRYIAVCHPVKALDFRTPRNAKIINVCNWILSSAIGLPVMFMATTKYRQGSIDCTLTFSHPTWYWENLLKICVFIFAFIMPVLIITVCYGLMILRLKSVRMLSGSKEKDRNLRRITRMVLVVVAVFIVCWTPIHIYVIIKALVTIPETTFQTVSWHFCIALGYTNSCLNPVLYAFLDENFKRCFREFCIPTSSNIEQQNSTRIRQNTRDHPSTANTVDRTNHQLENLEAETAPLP
# EXPERIMENT: Opioid binding assay, displacement of [3H]DAMGO, hMOR-CHO cell membranes
# PROTOCOL_CONDITIONS: ratio of Ki values, CHO membranes
selectivity ratio MOR/DOR overview
Please reply with the value in numeric form only.

[[record]]
compound = "CN1CCC23c4c5ccc(O)c4OC2c2ncc(-c4ccc(Cl)cc4)cc2CC3(OC(=O)c2ccccc2)C1C5 (stereo not shown) [Compound 18d]"
val = 4.9

[[record]]
compound = "COC12Cc3cc(-c4ccc(Cl)cc4)cnc3C3Oc4c(O)ccc5c4C31CCN(CC1CC1)C2C5 (stereo not shown) [Compound 17a]"
val = 22

[[record]]
compound = "COC12Cc3cc(-c4ccc(Cl)cc4)cnc3C3Oc4c(O)ccc5c4C31CCN(C)C2C5 (stereo not shown) [Compound 17e]"
val = 4.8

[[record]]
compound = "CN1CCC23c4c5ccc(O)c4OC2c2ncc(-c4ccc(Cl)cc4)cc2CC3(OC(=O)Cc2ccccc2)C1C5 (stereo not shown) [Compound 18e]"
val = 1.5

[[record]]
compound = "O=C(OC12Cc3cc(-c4ccc(Cl)cc4)cnc3C3Oc4c(O)ccc5c4C31CCN(CC1CC1)C2C5)c1ccccc1 (stereo not shown) [Compound 18a]"
val = 2.2

[[record]]
compound = "Oc1ccc2c3c1OC1c4ncc(-c5ccc(Cl)cc5)cc4CC4(OCC=Cc5ccccc5)C(C2)N(CC2CC2)CCC314 (stereo not shown) [Compound 17c]"
val = 0.81


Please turn your attention to the following entry.
q: Provide one value: measured selectivity ratio MOR/DOR of O=C(CCc1ccccc1)O[C@@]12Cc3cc(-c4ccc(Cl)cc4)cnc3[C@@H]3Oc4c(O)ccc5c4[C@@]31CCN(CC1CC1)[C@@H]2C5 [Compound 18c]
a: 0.62

* * *

# TARGET_OF_ASSAY: MOR (Homo sapiens)
# Construct: expressed in transfected cells; host or cells: CHO (hMOR-CHO)
# EXPERIMENT: [35S]GTP-γ-S binding assay, hMOR-CHO cells
# Assay type: biochemical
# PROTOCOL_CONDITIONS: stimulation of [35S]GTP-γ-S binding; no stim = no stimulation
READOUT_LABEL: agonist activity MOR EC50

Before answering, review these 5 worked examples.
[[record]]
compound = "Oc1ccc2c3c1OC1c4ncc(-c5ccc(Cl)cc5)cc4CC4(OCC=Cc5ccccc5)C(C2)N(CC2CC2)CCC314 (stereo not shown) [Compound 17c]"
val = "no stim"

[[record]]
compound = "O=C(OC12Cc3cc(-c4ccc(Cl)cc4)cnc3C3Oc4c(O)ccc5c4C31CCN(CC1CC1)C2C5)c1ccccc1 (stereo not shown) [Compound 18a]"
val = "no stim"

[[record]]
compound = "Oc1ccc2c3c1OC1c4ncc(-c5ccc(Cl)cc5)cc4CC4(OCc5ccccc5)C(C2)N(CC2CC2)CCC314 (stereo not shown) [Compound 17b]"
val = "no stim"

[[record]]
compound = "O=C(CCc1ccccc1)O[C@@]12Cc3cc(-c4ccc(Cl)cc4)cnc3[C@@H]3Oc4c(O)ccc5c4[C@@]31CCN(CC1CC1)[C@@H]2C5 [Compound 18c]"
val = "no stim"

[[record]]
compound = "COC12Cc3cc(-c4ccc(Cl)cc4)cnc3C3Oc4c(O)ccc5c4C31CCN(CC1CC1)C2C5 (stereo not shown) [Compound 17a]"
val = "no stim"


q: Provide one value: measured agonist activity MOR EC50 of Oc1ccc2c3c1OC1c4ncc(-c5ccc(Cl)cc5)cc4C=C4C(C2)N(CC2CC2)CCC431 (stereo not shown)
a: no stim

q: Provide one value: measured agonist activity MOR EC50 of O=C(Cc1ccccc1)OC12Cc3cc(-c4ccc(Cl)cc4)cnc3C3Oc4c(O)ccc5c4C31CCN(CC1CC1)C2C5 (stereo not shown) [Compound 18b]
a: no stim

* * *

# TARGET_OF_ASSAY: MOR (Homo sapiens, UniProt P35372)
# Construct: expressed in transfected cells; host or cells: CHO (hMOR-CHO)
# EXPERIMENT: Opioid binding assay, displacement of [3H]DAMGO, hMOR-CHO cell membranes
log10(Ki) overview
// do not treat as linear: log10 of Ki, unit nM

[[record]]
molecule = "CN1CCC23c4c5ccc(O)c4OC2c2ncc(-c4ccc(Cl)cc4)cc2CC3(OC(=O)c2ccccc2)C1C5 (stereo not shown) [Compound 18d]"
val = 1.92

[[record]]
molecule = "CN1CCC23c4c5ccc(O)c4OC2c2ncc(-c4ccc(Cl)cc4)cc2CC3(OC(=O)CCc2ccccc2)C1C5 (stereo not shown) [Compound 18f]"
val = -0.03


Please turn your attention to the following entry.
q: Report value only: log10(Ki), MOR (Homo sapiens, UniProt P35372), COC12Cc3cc(-c4ccc(Cl)cc4)cnc3C3Oc4c(O)ccc5c4C31CCN(CC1CC1)C2C5 (stereo not shown) [Compound 17a]
a: 1.62

* * *

# TARGET_OF_ASSAY: DOR (Homo sapiens, UniProt P41143)
# Construct: expressed in transfected cells; host or cells: CHO (hDOR-CHO)
# Sequence (P41143 whole entry): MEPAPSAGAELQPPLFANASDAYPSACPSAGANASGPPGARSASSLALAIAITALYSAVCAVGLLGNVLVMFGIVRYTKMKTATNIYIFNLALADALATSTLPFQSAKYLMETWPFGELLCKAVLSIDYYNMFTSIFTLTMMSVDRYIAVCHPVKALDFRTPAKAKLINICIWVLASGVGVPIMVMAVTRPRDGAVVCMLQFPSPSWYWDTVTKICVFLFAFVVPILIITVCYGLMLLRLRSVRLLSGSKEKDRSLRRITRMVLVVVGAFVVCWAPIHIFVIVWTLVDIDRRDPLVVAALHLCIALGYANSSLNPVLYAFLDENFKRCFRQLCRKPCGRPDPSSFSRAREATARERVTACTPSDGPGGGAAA
# EXPERIMENT: Opioid binding assay, displacement of [3H]DADLE, hDOR-CHO cell membranes
# PROTOCOL_CONDITIONS: read-out: Ki ± SEM DOR
READOUT_LABEL: pKi
Kindly note that pKi refers to -log10 of the concentration in mol/L and answer with the value alone.

q: Provide one value: measured pKi of O=C(CCc1ccccc1)O[C@@]12Cc3cc(-c4ccc(Cl)cc4)cnc3[C@@H]3Oc4c(O)ccc5c4[C@@]31CCN(CC1CC1)[C@@H]2C5 [Compound 18c]
a: 8.38

* * *

melting point overview

Before answering, review these 6 worked examples.
[[record]]
molecule = "COC12Cc3cc(-c4ccc(Cl)cc4)cnc3C3Oc4c(O)ccc5c4C31CCN(C)C2C5 (centres unmarked) [Compound 17e]"
val = "296 to 299 °C (dec.)"

[[record]]
molecule = "CN1CCC23c4c5ccc(O)c4OC2c2ncc(-c4ccc(Cl)cc4)cc2CC3(OC(=O)CCc2ccccc2)C1C5 (centres unmarked) [Compound 18f]"
val = "242 to 244 °C"

[[record]]
molecule = "O=C(OC12Cc3cc(-c4ccc(Cl)cc4)cnc3C3Oc4c(O)ccc5c4C31CCN(CC1CC1)C2C5)c1ccccc1 (centres unmarked) [Compound 18a]"
val = "158 to 162 °C"

[[record]]
molecule = "CN1CCC23c4c5ccc(O)c4OC2c2ncc(-c4ccc(Cl)cc4)cc2CC3(OC(=O)Cc2ccccc2)C1C5 (centres unmarked) [Compound 18e]"
val = "194 to 196 °C"

[[record]]
molecule = "Oc1ccc2c3c1OC1c4ncc(-c5ccc(Cl)cc5)cc4CC4(OCc5ccccc5)C(C2)N(CC2CC2)CCC314 (centres unmarked) [Compound 17b]"
val = "130 to 132 °C"

[[record]]
molecule = "CN1CCC23c4c5ccc(O)c4OC2c2ncc(-c4ccc(Cl)cc4)cc2CC3(OC(=O)c2ccccc2)C1C5 (centres unmarked) [Compound 18d]"
val = "280 to 284 °C"


q: Provide one value: measured melting point of Oc1ccc2c3c1OC1c4ncc(-c5ccc(Cl)cc5)cc4CC4(OCC=Cc5ccccc5)C(C2)N(CC2CC2)CCC314 (centres unmarked) [Compound 17c]
a: 138 to 140 °C

* * *

Emax overview
# TARGET_OF_ASSAY: DOR (Mus musculus)
# Construct: endogenous in cells; host or cells: NG108-15 neuroblastoma x glioma cells
# Sequence (P32300 whole entry): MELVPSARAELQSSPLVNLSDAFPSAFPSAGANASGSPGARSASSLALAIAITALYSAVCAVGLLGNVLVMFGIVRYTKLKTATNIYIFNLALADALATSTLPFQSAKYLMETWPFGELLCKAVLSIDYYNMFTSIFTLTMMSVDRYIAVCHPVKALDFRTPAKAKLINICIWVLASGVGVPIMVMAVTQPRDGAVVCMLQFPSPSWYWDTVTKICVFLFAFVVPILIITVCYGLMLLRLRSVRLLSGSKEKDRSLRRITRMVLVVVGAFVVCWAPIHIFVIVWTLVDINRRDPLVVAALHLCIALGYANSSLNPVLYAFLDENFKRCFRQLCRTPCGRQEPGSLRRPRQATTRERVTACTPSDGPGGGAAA
# EXPERIMENT: [35S]GTP-γ-S binding assay, NG108-15 cells
# Type: biochemical
# PROTOCOL_CONDITIONS: read-out: agonist activity DOR Emax
Quick reminder: number only, in %, skip the unit.

Before answering, review these 4 worked examples.
[[record]]
compound = "CN1CCC23c4c5ccc(O)c4OC2c2ncc(-c4ccc(Cl)cc4)cc2CC3(OCC=Cc2ccccc2)C1C5 (centres unmarked) [Compound 17g]"
target_of_assay = "DOR (Mus musculus)"
val = 84

[[record]]
compound = "CN1CCC23c4c5ccc(O)c4OC2c2ncc(-c4ccc(Cl)cc4)cc2CC3(OC(=O)CCc2ccccc2)C1C5 (centres unmarked) [Compound 18f]"
target_of_assay = "DOR (Mus musculus)"
val = 59

[[record]]
compound = "CN1CCC23c4c5ccc(O)c4OC2c2ncc(-c4ccc(Cl)cc4)cc2CC3(OCc2ccccc2)C1C5 (centres unmarked) [Compound 17f]"
target_of_assay = "DOR (Mus musculus)"
val = 52

[[record]]
compound = "CN1CCC23c4c5ccc(O)c4OC2c2ncc(-c4ccc(Cl)cc4)cc2CC3(OCCCc2ccccc2)C1C5 (centres unmarked) [Compound 17h]"
target_of_assay = "DOR (Mus musculus)"
val = 85


q: Report value only: Emax, DOR (Mus musculus), CN1CCC23c4c5ccc(O)c4OC2c2ncc(-c4ccc(Cl)cc4)cc2CC3(OC(=O)Cc2ccccc2)C1C5 (centres unmarked) [Compound 18e]
a: 27
